Recorded pIC50 for the following binders
# test.system: Ab-15
# protocol.description: competition ELISA: peptide titrated against 1 nM Ab-15; competitor plate-bound CD28
Where no end group is shown, it is not given here.
Interpret pIC50 as the negative base-10 log of the concentration measured in mol/L.

Recorded results for 4 binders are shown here.
{"binder": "WDWCPRDLWVHCFA (cysteine pairing not given here; also: biotinylated, site not given here, CD28 peptide mask) [Peptide-67]", "pIC50": 5.55}
{"binder": "HDWCPRDLWVHCFA (cysteine pairing not given here; also: biotinylated, site not given here, CD28 peptide mask) [Peptide-59]", "pIC50": 5.66}
{"binder": "VDWCPRDLWVHCFA (cysteine pairing not given here; also: biotinylated, site not given here, CD28 peptide mask) [Peptide-69]", "pIC50": 5.35}
{"binder": "NDWCPRDLWVHCFA (cysteine pairing not given here; also: biotinylated, site not given here, CD28 peptide mask) [Peptide-54]", "pIC50": 5.30}

We now examine a further binder.
Please report pIC50 for the following binder: PDWCPRDLWVHCFA (cysteine pairing not given here; also: biotinylated, site not given here, CD28 peptide mask) [Peptide-64]
5.08
